Test system: MEK1
Construct: gene MAP2K1
Settings: concentration: 1 μM,replicates: in singlicate; n = 1;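 note: KINOMEscan kinase panel screen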
assay readout: %Inh
Put your answer as a value accompanied by its unit after it.

Lookup: Supply reported %Inh belonging to this compound: O=C1NCCc2[nH]c(-c3ccncc3)cc21
Found: 8%

Lookup: Given Cc1cccc2c(-c3ccncc3)c(-c3ccc(F)cc3)nn12.Cl , respond with its %Inh.
Found: 39%

Lookup: Report measured %Inh; entry is CS(=O)c1ccc(-c2coc3ccc(-c4n[nH]c(=O)o4)cc23)cc1 (centres unmarked)
Found: 17%

Lookup: Supply recorded %Inh for Cl.c1ccc(Oc2ccc(Nc3ccnc4cc(-c5ccc(CN6CCNCC6)o5)ccc34)cc2)nc1 here.
Found: 87%

Lookup: Give the reported value of %Inh for this record: CCOC(=O)N1CCC(n2cnc(-c3ccc(F)cc3)c2-c2ccnc(N)n2)CC1
Found: 3%

Lookup: Hello, please tell me recorded %Inh for this one: C[C@@H](Oc1cc(-n2cnc3cc(-c4cnn(C)c4)ccc32)sc1C(N)=O)c1ccccc1Cl
Found: 0%

Lookup: Supply %Inh value. Item: Cc1ccc2c(-c3ccnc(Nc4ccc(C(F)(F)F)cc4)n3)cnn2n1
Found: 32%

Lookup: Provide %Inh value for the following compound: COc1ccc(Nc2nccc(N3CCC(NC(=O)c4cccc(C#N)c4)C3)n2)cc1 (centres unmarked)
Found: 0%

Lookup: Return reported %Inh. Input compound: O=C(Nc1cccc(Oc2ccc3nccn3n2)c1)Nc1cccc(C(F)(F)F)c1
Found: 0%

Lookup: Entry Cn1ccc2ncnc(Oc3ccc(NC(=O)Nc4cncc(C(F)(F)F)c4)c(Cl)c3)c21 needs its %Inh filled in; supply it.
Found: 0%

Lookup: Give %Inh for O=C(Nc1n[nH]c2cc(-c3ccco3)ccc12)C1CC1
Found: 0%

Lookup: Give a short answer stating reported %Inh for C[C@@H]1CNc2c(sc3ccc4nc(-c5ccncc5)ccc4c23)C(=O)N1 .
Found: 0%

Lookup: Quote %Inh reported for CN1CCN(CCNc2nc3cc(Oc4ccc(NC(=O)Nc5cc(C(F)(F)F)ccc5F)cc4)ccc3[nH]2)CC1.Cl.Cl please.
Found: 0%

Lookup: Specify reported %Inh for the compound shown: N#Cc1cccc(C(=O)NC2CCN(c3ccnc(Nc4ccc(F)cc4)n3)C2)c1 (centres unmarked)
Found: 0%

Lookup: Give reported %Inh value for CC(=O)Nc1nc2cnc(Nc3cc(NC(=O)c4cccc(CC(C)(C)C#N)c4)ccc3C)nc2s1
Found: 6%

Lookup: Please supply the value of reported %Inh for the item Cl.Cl.NC[C@H](CC1CCCCC1)NC(=O)c1ccc(-c2ccnc3[nH]ccc23)s1
Found: 0%

Lookup: Give the reported %Inh for this compound. COC(=O)c1cccc(NC(=O)NC2CCN(c3ccnc(Nc4cc(OC)c(OC)c(OC)c4)n3)C2)c1 (centres unmarked)
Found: 0%

Lookup: Given FC(F)(F)c1cc(Br)cc(Nc2nccc(-c3cnn4ncccc34)n2)c1 , respond with its %Inh.
Found: 3%

Lookup: Input Cn1ccc2ncnc(Oc3ccc(NC(=O)Nc4ccnc(C(F)(F)F)c4)c(Cl)c3)c21 , output reported %Inh.
Found: 4%

Lookup: State, in one line, measured %Inh of Cl.Nc1n[nH]c2cc(-c3ccccn3)ccc12
Found: 2%

Lookup: Output measured %Inh for this item: CN1CCN(CCCNc2nccc(-c3c(-c4ccc(F)cc4)nn4cc(C(N)=O)ccc34)n2)CC1
Found: 0%

Lookup: For the compound CS(=O)(=O)c1cccc(CNc2nc(Nc3ccc4c(c3)[C@@H]3C[C@@H]4CNC3=O)ncc2C(F)(F)F)c1 , report %Inh.
Found: 39%

Lookup: Read off the recorded %Inh for O=C(Nc1ccccc1)c1cccc(Oc2ccc3nccn3n2)c1
Found: 0%

Lookup: Write down %Inh measured for item Cc1ccc(C(=O)Nc2ccc(Oc3ccc4nc(NC(=O)C5CC5)cn4c3)c(F)c2)c(=O)n1-c1ccccc1
Found: 0%

Lookup: Please supply the value of reported %Inh for the item Cc1ccn2nc(-c3ccc(F)cc3)c(-c3ccncc3)c2c1.Cl
Found: 0%

Lookup: Tell me measured %Inh for CN(c1ccc2c(c1)nc(NCc1ccc(F)cc1)n2C)c1ccnc(Nc2ccc(CS(C)(=O)=O)cc2)n1.Cl please.
Found: 14%

Lookup: # return recorded %Inh for input COC(=O)c1cccc(NC(=O)NC2CCN(c3ccnc(NCc4ccc(F)cc4)n3)CC2)c1
Found: 0%

Lookup: Read the entry OCCn1cc(-c2cnc3nnn(Cc4ccc5ncccc5c4)c3n2)cn1 and write its reported %Inh.
Found: 0%

Lookup: State, in one line, measured %Inh of CN(c1ccccc1CNc1nc(Nc2ccc3c(c2)CC(=O)N3)ncc1C(F)(F)F)S(C)(=O)=O
Found: 1%

Lookup: Look up %Inh of CSc1nccc(-c2c(-c3ccc(F)cc3)ncn2CCCN2CCOCC2)n1.Cl and report it.
Found: 30%

Lookup: Quick one: give measured %Inh for Cc1cccc(-c2nc(Nc3ccncc3)c3sccc3n2)n1
Found: 25%

Lookup: Hello, please tell me recorded %Inh for this one: CCn1c(-c2nonc2N)nc2cncc(CNC3CCNCC3)c21.Cl
Found: 0%

Lookup: Let me know recorded %Inh for Cn1cc(-c2cccc3c(N)c(C(N)=O)nnc23)cn1 , thanks.
Found: 5%

Lookup: Please report %Inh for the following compound: COc1cccc(CNC(=O)NC2CCN(c3ccnc(Nc4cc(OC)c(OC)c(OC)c4)n3)C2)c1 (centres unmarked)
Found: 17%

Lookup: Give %Inh for the following compound: CC(C)S(=O)(=O)N1CCN(Cc2ccc3c(c2)nc(NC(=O)c2ccsc2)n3C[C@H](O)c2ccccc2)CC1
Found: 0%

---

System: MKNK1
Conditions: concentration: 1 μM,replicates: in singlicate; n = 1
Please go through the items and note down their %Inh.
Only the number, expressed in %, is required.

Lookup: Return reported %Inh. Input molecule: COc1ccc(Nc2nccc(N3CCC(NC(=O)c4cccc(C#N)c4)C3)n2)cc1 (centres unmarked)
Found: 0

Lookup: State, in one line, measured %Inh of COc1cc2c(Nc3ccc(NC(=O)c4ccccc4)cc3)ncnc2cc1OCCCN1CCOCC1
Found: 0

Lookup: Report measured %Inh; entry is C[C@@H](Oc1cc(-n2cnc3cc(-c4cnn(C)c4)ccc32)sc1C(N)=O)c1ccccc1Cl
Found: 2

Lookup: Determine its reported %Inh: CCn1c(-c2nonc2N)nc2cncc(Br)c21
Found: 10

Lookup: Supply recorded %Inh for OCCn1cc(-c2cnc3nnn(Cc4ccc5ncccc5c4)c3n2)cn1 here.
Found: 0

---

So I've got a bunch of compounds here, and I need their %Inh values.
System: AKT3
Conditions: concentration: 1 μM,replicates: in singlicate; n = 1
Give the value, in units of %, as a plain number.

Lookup: Let me know recorded %Inh for C[C@@H](Oc1cc(-n2cnc3ccc(-c4ccncc4)cc32)sc1C(N)=O)c1ccccc1Cl , thanks.
Found: 0

Lookup: Indicate the recorded %Inh value for this compound: Cl.c1ccc(Oc2ccc(Nc3ccnc4cc(-c5ccc(CN6CCNCC6)o5)ccc34)cc2)nc1
Found: 0

Lookup: Give the reported value of %Inh for this record: CS(=O)(=O)Nc1ccc(-c2ccnc3[nH]ccc23)cc1
Found: 0

Lookup: Answer with the recorded %Inh for the compound listed here: Cn1cc(-c2cccc3c(N)c(C(N)=O)nnc23)cn1
Found: 15

Lookup: For the compound Cc1n[nH]c2cc(Nc3ccnc(Nc4cccc(CN5CCOCC5)c4)n3)ccc12 , give its measured %Inh value.
Found: 0

Lookup: Fill in %Inh for record Cc1ccc(CC(=O)N2CCc3cc(-c4cn(C)c5ncnc(N)c45)ccc32)cc1
Found: 30

Lookup: Return the recorded %Inh value; entry: CN(c1cccc(CNc2nc(Nc3ccc4c(c3)CC(=O)N4)ncc2C(F)(F)F)c1)S(C)(=O)=O
Found: 0

Lookup: Return %Inh (reported value) for this compound: NC(=O)Nc1sc(-c2ccc(F)cc2)cc1C(N)=O
Found: 0

Lookup: Please report %Inh for the following compound: Cc1cccc(-c2nc(Nc3ccncc3)c3sccc3n2)n1
Found: 3

Lookup: Recall and state the measured %Inh for Cl.Nc1n[nH]c2cc(-c3ccccn3)ccc12 .
Found: 0

Lookup: For the compound COC(=O)c1cccc(NC(=O)NC2CCN(c3ccnc(NCc4ccc(F)cc4)n3)CC2)c1 , give its reported %Inh.
Found: 0

Lookup: Tell us which %Inh value is on record for O=C(Nc1ccccc1)c1cccc(Oc2ccc3nccn3n2)c1
Found: 0

Lookup: Specify measured %Inh for O=C1NCCc2[nH]c(-c3ccncc3)cc21 .
Found: 0

Lookup: Give %Inh for CC(C(=O)NC1CCN(c2ccnc(Nc3ccc(F)cc3)n2)C1)c1ccc(Cl)cc1 (stereo not shown)
Found: 0

Lookup: Look up and state reported %Inh for CN(c1ccccc1CNc1nc(Nc2ccc3c(c2)CC(=O)N3)ncc1C(F)(F)F)S(C)(=O)=O
Found: 0

Lookup: Give the reported %Inh for this compound. Cc1ccc2c(-c3ccnc(Nc4ccc(C(F)(F)F)cc4)n3)cnn2n1
Found: 0

Lookup: For the compound Cn1ccc2ncnc(Oc3ccc(NC(=O)Nc4ccnc(C(F)(F)F)c4)c(Cl)c3)c21 , give its measured %Inh value.
Found: 0

Lookup: Give the reported %Inh for this compound. Nc1nccc(-c2ccc3c(N)n[nH]c3c2)n1
Found: 0

Lookup: Answer with the recorded %Inh for the compound listed here: O=C(NCC1CC1)c1ccc(-c2cc(C(=O)NC3CC3)ccc2F)cc1
Found: 0

Attribution: paper PMC5540273
